test: Potency index, ratio of test compound IC50 to gemcitabine IC50 for cytotoxicity against HEK-293T cells assessed as inhibition of cell growth incubated for 72 hrs by CCK-8 assay; assay type: toxicity, cell-based; settings: human, read-out: Ratio IC50
Property Measured: selectivity ratio at 72 h

Input "CC(=O)NCCCC[C@H](N)C(=O)Nc1ccn([C@@H]2O[C@H](CO)[C@@H](O)C2(F)F)c(=O)n1" . Output selectivity ratio at 72 h: ≥ 69

The compound listed as "CC(=O)NCCCC[C@@H](NC(=O)Cc1c[nH]c2ccccc12)C(=O)Nc1ccn([C@@H]2O[C@H](CO)[C@@H](O)C2(F)F)c(=O)n1" has a reported selectivity ratio at 72 h of ≥ 69

Quick note, selectivity ratio at 72 h for "CC(=O)NCCCC[C@@H](N)C(=O)Nc1ccn([C@@H]2O[C@H](CO)[C@@H](O)C2(F)F)c(=O)n1" landed at ≥ 69

Item: "CC(=O)NCCCC[C@H](NC(=O)Cc1c[nH]c2ccccc12)C(=O)Nc1ccn([C@@H]2O[C@H](CO)[C@@H](O)C2(F)F)c(=O)n1" | selectivity ratio at 72 h: ≥ 69
